- Tested on: NCI/ADR-RES
- Measurement Description: NCI tumour cell line growth inhibition, 48 h
Active and inactive are the calls of the source. Cut-off read from the data, not from the text of the source: active = GI50 up to about 1.1 µM and inactive = higher.
Endpoint: GI50

>  <Molecule>
O/N=C1\CC2(N3CCOCC3)CCC1(c1ccccc1)CC2

>  <Test Value>
> 100 µM (inactive)

$$$$
>  <Molecule>
Cc1ncc(CSc2ccccc2N)c(CO)c1O

>  <Test Value>
> 100 µM (inactive)

$$$$
>  <Molecule>
C[N+]1(C)CCc2cc(O)c(O)cc2C1Cc1ccc(O)c(O)c1 (stereo not given)

>  <Test Value>
79.4 µM (inactive)

$$$$
>  <Molecule>
COc1ccc(-c2nc(-c3cnccn3)n(C3OC(CO)C(O)C3O)n2)cc1 (stereo not given)

>  <Test Value>
> 10 µM (inactive)

$$$$
>  <Molecule>
COc1ccc(CCNC2=CC(=O)c3ncccc3C2=O)cc1OC

>  <Test Value>
2.28 µM (inactive)

$$$$
>  <Molecule>
COC(=O)C(CCSC)NC(=O)CNC(=O)CSc1nnc(COc2ccc(Cl)cc2)n1-c1ccccc1 (stereo not given)

>  <Test Value>
82.2 µM (inactive)

$$$$
>  <Molecule>
Cc1ccc(C(=O)c2[nH]c(NCc3ccccc3)c(C(=S)Nc3ccccc3)c2N)cc1

>  <Test Value>
2.58 µM (inactive)

$$$$
>  <Molecule>
COc1ccc(C(C)NNC(=O)c2cc[n+]([BH2-]C#N)cc2)cc1F (stereo not given)

>  <Test Value>
> 100 µM (inactive)

$$$$
>  <Molecule>
COc1ccc2c(c1)/C(=C(\C(Cl)=C(Cl)Cl)[N+](=O)[O-])N2

>  <Test Value>
79.8 µM (inactive)

$$$$
>  <Molecule>
CCOC(=O)CCN1C(=O)C(=O)N(c2ccc(OC)cc2)C1=S

>  <Test Value>
> 100 µM (inactive)

$$$$
